All values here come from patent US20100137368A1.

Where a name gives a salt, the structure may show the parent alone.
melting point reference
Return type: number; implicit unit °C.

Previously resolved entries follow.
Exercise: Return melting point (reported value) for this molecule: Fc1ccc(CN2CCC(Nc3ccc(C(F)(F)F)cn3)CC2)cc1F (as salt: hydrochloric acid salt)
Solution: 268.7

Exercise: State its melting point: N#Cc1ccc(NC2CCN(Cc3cccc(C(F)(F)F)c3)CC2)nc1
Solution: 111.6

Exercise: Retrieve melting point measured for N#Cc1ccc(NC2CCN(Cc3cc(F)cc(C(F)(F)F)c3)CC2)nc1 and print it.
Solution: 198.8

Exercise: Quote melting point reported for N#Cc1cccc(NC2CCN(Cc3cc(F)cc(C(F)(F)F)c3)CC2)n1 please.
Solution: 115.2

Exercise: For the molecule N#Cc1ccc(NC2CCN(Cc3cc(F)cc(F)c3)CC2)nc1 , give its reported melting point.
Solution: 102.6

***
Exercise: For the molecule N#Cc1ccc(NC2CCN(Cc3cc(F)c(F)c(F)c3)CC2)nc1 , give its measured melting point value.
Solution: 129.5
